src = patent US20220386606A1

# Tested on: DIGSA
# measurementDescription: Post-emergence herbicidal action against DIGSA
# Type: in vivo, Digitaria sanguinalis
# details: 80 g/ha, visual assessment about 3 weeks after treatment vs untreated controls
Reported Post-emergence action against DIGSA in % is given for each of the following molecules.
API: value field is a number in %; no unit string.

// known answers, use as guide
Entry under test: CC#Cc1cc(Cl)c(C2=C(O)C3(CCC(COCC)C3)NC2=O)c(OC)c1 (centres unmarked) [Example I-07] . Its Post-emergence action against DIGSA in % was 100

Entry under test: CC#Cc1cc(C)c(C2=C(OC(=O)OCC)C3(CCC(COCCC)C3)NC2=O)c(Cl)c1 (centres unmarked) [Example P-87] . Its Post-emergence action against DIGSA in % was 100

Entry under test: CC#Cc1cc(C)c(C2=C(O)C3(CCC(COC)C3)NC2=O)c(F)c1 (centres unmarked) [Example I-34] . Its Post-emergence action against DIGSA in % was 100

Entry under test: CC#Cc1cc(C)c(C2=C(OC(=O)OCC)C3(CCC(COC)C3)NC2=O)c(OC)c1 (centres unmarked) [Example P-47] . Its Post-emergence action against DIGSA in % was 100

Entry under test: CC#Cc1cc(C)c(C2=C(O)C3(CCC(COCC)C3)NC2=O)c(Cl)c1 (centres unmarked) [Example I-17] . Its Post-emergence action against DIGSA in % was 100

Entry under test: CC#Cc1cc(Br)c(C2=C(O)C3(CCC(COCC)C3)NC2=O)c(OCC)c1 (centres unmarked) [Example I-63] . Its Post-emergence action against DIGSA in % was 90

Entry under test: CC#Cc1cc(Br)c(C2=C(O)[C@]3(CC[C@H](COCC)C3)NC2=O)c(OC)c1 (stereo in doubt) [Example I-11] . Its Post-emergence action against DIGSA in % was 100

Entry under test: C=CCOCC1CCC2(C1)NC(=O)C(c1c(F)cc(C#CC)cc1OC)=C2OC(=O)OCC (centres unmarked) [Example P-77] . Its Post-emergence action against DIGSA in % was 80

Entry under test: CC#Cc1cc(Cl)c(C2=C(O)C3(CCC(COC)C3)NC2=O)c(CC)c1 (centres unmarked) [Example I-16] . Its Post-emergence action against DIGSA in % was 100

Entry under test: C#CCOCC1CCC2(C1)NC(=O)C(c1c(C)cc(C#CC)cc1OC)=C2O (centres unmarked) [Example I-77] . Its Post-emergence action against DIGSA in % was 90

Now take the following molecule into account.
Entry under test: CC#Cc1cc(C)c(C2=C(O)C3(CCC(COCCOC)C3)NC2=O)c(Cl)c1 (centres unmarked) [Example I-51] . Its Post-emergence action against DIGSA in % was 100

###

# Test system: POLCO
# measurementDescription: Pre-emergence herbicidal action against POLCO
# Assay type: in vivo, Polygonum convolvulus
# details: 320 g/ha
Reported Pre-emergence action against POLCO in % is given for each of the following compounds.
API: value field is a number in %; no unit string.

Entry under test: CC#Cc1cc(C)c(C2=C(O)C3(CCC(COC)C3)NC2=O)c(Br)c1 (stereo not shown) [Example I-18] . Its Pre-emergence action against POLCO in % was 100

Entry under test: C=CCOCC1CCC2(C1)NC(=O)C(c1c(C)cc(C#CC)cc1Cl)=C2O (stereo not shown) [Example I-44] . Its Pre-emergence action against POLCO in % was 100

Entry under test: CC#Cc1cc(C)c(C2=C(OC(=O)OCC)C3(CCC(COC)C3)NC2=O)c(Br)c1 (stereo not shown) [Example P-31] . Its Pre-emergence action against POLCO in % was 90

Now take the following compound into account.
Entry under test: CC#Cc1cc(C)c(C2=C(OC(=O)C(C)C)C3(CCC(COC)C3)NC2=O)c(Br)c1 (stereo not shown) [Example P-33] . Its Pre-emergence action against POLCO in % was 100
